Origin of values: ChEMBL document CHEMBL1681731

Recorded inhibition at 1 µM for the following molecules
# System: RAW264.7
# procedure summary: Antiinflammatory activity against mouse RAW264.7 cells assessed as reduction of lipopolysaccharide/interferon-gamma induced PGE2 production at 1 uM by EIA
# Assay type: functional
The answer is to be given in %; state only the numeric part.

As a guide, the following entries are already answered.
>>> result_number("O=C(c1ccc([N+](=O)[O-])cc1)c1nccc2c1[nH]c1ccccc12")
0
>>> result_number("O=C(c1ccc(Br)cc1)c1nccc2c1[nH]c1ccccc12")
98
>>> result_number("COc1ccc(C(=O)c2nccc3c2[nH]c2ccccc23)cc1")
0
>>> result_number("Cc1cccc(C(=O)c2nccc3c2[nH]c2ccccc23)c1")
97
>>> result_number("OC(c1ccccc1)c1nccc2c1[nH]c1ccccc12 (stereo unspecified)")
0
>>> result_number("O=C(O)c1cc2c([nH]c3ccccc32)c(C(=O)c2cccc(Br)c2)n1")
100
>>> result_number("Cc1ccc(C(=O)c2nc(C(=O)O)cc3c2[nH]c2ccccc23)cc1")
100
>>> result_number("Cc1ccccc1C(=O)c1nccc2c1[nH]c1ccccc12")
0

The measured inhibition at 1 µM associated with O=C(O)c1cc2c([nH]c3ccccc32)c(C(=O)c2ccc([N+](=O)[O-])cc2)n1 reads 0

The recorded inhibition at 1 µM for entry Cc1ccccc1C(=O)c1nc(C(=O)O)cc2c1[nH]c1ccccc12 equals 0

// field: inhibition at 1 µM; key: Cc1ccc(C(O)c2nccc3c2[nH]c2ccccc23)cc1 (stereo unspecified) ; value = 15

====

# System: RAW264.7
# procedure summary: Antiinflammatory activity against mouse RAW264.7 cells assessed as reduction of lipopolysaccharide/interferon-gamma induced PGE2 production at 1 uM by EIA
# Assay type: functional
assay metric: inhibition at 1 µM (%)
Express your answer in %, writing the number without its unit.

>>> result_number("Cc1ccc(C(=O)c2nccc3c2[nH]c2ccccc23)cc1")
25
>>> result_number("CC(=O)c1nccc2c1[nH]c1ccccc12")
0
>>> result_number("Cc1cccc(C(=O)c2nc(C(=O)O)cc3c2[nH]c2ccccc23)c1")
98
>>> result_number("CC(=O)c1nc(C(=O)O)cc2c1[nH]c1ccccc12")
0
>>> result_number("O=C(c1ccccc1Br)c1nccc2c1[nH]c1ccccc12")
0
>>> result_number("COc1cccc(C(=O)c2nccc3c2[nH]c2ccccc23)c1")
0
>>> result_number("O=C(O)c1cc2c([nH]c3ccccc32)c(C(=O)c2ccccc2)n1")
0
>>> result_number("COC(=O)c1cc2c([nH]c3ccccc32)c(C(=O)c2ccc(OC)cc2)n1")
98

response.value for O=C(O)c1cc2c([nH]c3ccccc32)c(C(=O)c2ccc(Br)cc2)n1 (field: inhibition at 1 µM) = 98

====

Listed below: inhibition at 1 µM values for each entry.
# Test system: RAW264.7
# procedure summary: Antiinflammatory activity against mouse RAW264.7 cells assessed as reduction of lipopolysaccharide/interferon-gamma induced PGE2 production at 1 uM by EIA
# Assay type: functional
Report as a plain number; the unit % is understood.

>>> result_number("COc1ccc(C(=O)c2nc(C(=O)O)cc3c2[nH]c2ccccc23)cc1")
28

Form: molecule = CC(O)c1nccc2c1[nH]c1ccccc12 (stereo unspecified) ; inhibition at 1 µM = 0

Value of inhibition at 1 µM reported for the molecule COc1ccc(C(O)c2nccc3c2[nH]c2ccccc23)cc1 (stereo unspecified) is 0

Entry CC(=O)c1nc(C(N)=O)cc2c1[nH]c1ccccc12 — recorded inhibition at 1 µM = 0

The molecule identified as O=C(O)c1cc2c([nH]c3ccccc32)c(C(=O)c2ccccc2[N+](=O)[O-])n1 registered its inhibition at 1 µM at 0

Lookup result for O=C(c1cccc([N+](=O)[O-])c1)c1nccc2c1[nH]c1ccccc12 ; measured inhibition at 1 µM: 0

Entry under test: OC(c1ccc(Br)cc1)c1nccc2c1[nH]c1ccccc12 (stereo unspecified) . Its inhibition at 1 µM was 0

molecule O=C(O)c1cc2c([nH]c3ccccc32)c(C(=O)c2ccccc2Br)n1 , inhibition at 1 µM observed: 0

Consider N=C(N)NN . Its measured inhibition at 1 µM is 8

The molecule identified as O=C(c1cccc(Br)c1)c1nccc2c1[nH]c1ccccc12 registered its inhibition at 1 µM at 97

Record O=C(c1ccccc1)c1nccc2c1[nH]c1ccccc12 , field inhibition at 1 µM: 0
